Dear all, I have gathered published Ki values for Tyrosine-protein kinase JAK3 (Homo sapiens, UniProt P52333); the list follows.

Examples with their reported Ki follow.
| molecule | subject_of_test | Ki |
| --- | --- | --- |
| Fc1cccc(-c2cnoc2-c2c[nH]c3ncc(-c4cccnc4)cc23)c1F | Tyrosine-protein kinase JAK3 (Homo sapiens, UniProt P52333) | < 200 nM |
| c1ccc2c(c1)NC(c1ccc(-n3cncn3)cc1)c1c[nH]c3nccc-2c13 (stereo not shown) | Tyrosine-protein kinase JAK3 (Homo sapiens, UniProt P52333) | > 2500 nM |
| Nc1nn2cccnc2c1-c1cc(N2Cc3ccccc3C2)ncn1 | Tyrosine-protein kinase JAK3 (Homo sapiens, UniProt P52333) | 100 to 500 nM |

Can you give me Ki for all of these, one by one?
1. O=C1COc2ccc(-c3ccnc(Nc4cccc(O)c4)n3)cc2N1Cc1cccnc1
2. O=C(N[C@H](CO)c1cccc(Cl)c1)c1cc(-c2ncnc3[nH]ccc23)c[nH]1
3. COc1ccccc1C1Nc2ccccc2-c2ccnc3[nH]cc1c23 (stereo not shown)
4. CN1CCCN(C(=O)c2ccc(-c3cnc4c(-c5ccccn5)c(N)nn4c3)nc2)CC1
5. Cc1ccccc1CNc1cc(-c2c(N)nn3cccnc23)ncn1
6. CCCN(CCO)C(=O)c1ccc(-c2cnc3c(-c4ccccn4)c(N)nn3c2)nc1
7. Fc1cccc(-c2cnoc2-c2c[nH]c3ncc(-c4cncnc4)cc23)c1F

OUT:
1. < 1000 nM
2. < 100 nM
3. 250 to 2500 nM
4. 500 to 5000 nM
5. 10 to 100 nM
6. 500 to 5000 nM
7. 200 to 1000 nM
